Every entry's value here was drawn from patent US20200407452A1.

target_of_assay: T1, human MET ECD (human, UniProt P08581 25-932)
T1 construct: range 1-932; recombinant; range as printed includes the signal peptide; also called hMET; hMET ECD
test_description: ELISA, MET ECD coated, mAb 0-20 nM
Description: Production (by transient transfection of mammalian cells) and purification (by protein A affinity chromatography) of the resulting chimeric llama-human IgG1 molecules was outsourced to U-protein Express. Binding of chimeric mAbs to MET was determined by ELISA using hMET or mMET ECD in solid phase and increasing concentrations of antibodies (0-20 nM) in solution. […]
metric: EMAX (OD450 AU)
Dear colleague, please return just the value in OD450 AU, with no unit written.

The reported EMAX of the binder 71C3 chimeric llama-human IgG1 mAb (antibody, V domains shown, human IgG1 CH1-CH2-CH3 and human CL lambda) VH: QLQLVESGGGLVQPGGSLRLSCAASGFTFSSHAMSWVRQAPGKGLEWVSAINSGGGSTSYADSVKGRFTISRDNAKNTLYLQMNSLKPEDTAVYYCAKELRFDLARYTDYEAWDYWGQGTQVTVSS VL: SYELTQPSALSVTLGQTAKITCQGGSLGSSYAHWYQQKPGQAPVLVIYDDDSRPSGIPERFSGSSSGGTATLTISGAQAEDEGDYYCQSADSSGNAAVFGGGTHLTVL was 2.46

Record 71G12 chimeric llama-human IgG1 mAb (antibody, V domains shown, human IgG1 CH1-CH2-CH3 and human CL kappa) VH: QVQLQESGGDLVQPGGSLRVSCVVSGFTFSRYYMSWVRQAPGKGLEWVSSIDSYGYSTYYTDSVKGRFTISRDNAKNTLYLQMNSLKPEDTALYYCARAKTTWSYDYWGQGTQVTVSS VL: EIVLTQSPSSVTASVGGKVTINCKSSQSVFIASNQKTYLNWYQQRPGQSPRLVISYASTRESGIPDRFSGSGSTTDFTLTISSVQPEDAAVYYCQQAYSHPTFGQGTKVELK , field EMAX: 3.08
